B1: MMP1 (parent)
chain: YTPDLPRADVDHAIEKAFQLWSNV

variants of: B1; assay: protein stability index of a GFP-peptide fusion (GPS, HEK-293T) (PSI 1-6); higher = more stable; conditions: c terminus: a fixed tail appended;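 also: lentivirally expressed fusions sorted by FACS into six bins by GFP to DsRed ratio, PSI derived from sequencing read proportions per bin multiplied by bin number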
Label scheme for protein stability index: lower than 2 is false (0), 2 and above is true (1).

• YTPDLPRADVDHAIEKAFQLWSNE = true (1)
• YTPDLPRADVDHAIVKAFQLWSNV = false (0)
• YTPDLPRADVDHGIEKAFQLWSNV = true (1)
• YTPDLPRADVDHAIEKAFQLPSNV = true (1)
• YTPDLPRADVDHAISKAFQLWSNV = true (1)
• YTPDLPRADVCHAIEKAFQLWSNV = true (1)
• YTPDLPRADVDHAIEKAFQLFSNV = true (1)
• YTPDLPRADVDHAIEKALQLWSNV = false (0)
• YTPDLPRAMVDHAIEKAFQLWSNV = true (1)
• YTPDLPRADVDHANEKAFQLWSNV = false (0)
• YTPDLPRADVDHAIEKAFQTWSNV = true (1)
• YTPDLPRADVDHAIEKLFQLWSNV = false (0)
• YTPDYPRADVDHAIEKAFQLWSNV = false (0)
• YTPDLPRADVDHAIEKAFRLWSNV = true (1)
• YTPDLPRADVDHAIEKAFQLWMNV = false (0)
• YTPHLPRADVDHAIEKAFQLWSNV = true (1)
• YTPDLPRADVDHAIEKAFQLQSNV = true (1)
• YTPDLPRADVDHAIEKAAQLWSNV = false (0)
• YTPDLPRADVDHAIEKAFQLWYNV = false (0)
• YTPDLPPADVDHAIEKAFQLWSNV = false (0)
• YTPDLPRADVDHAILKAFQLWSNV = true (1)
• YTPDLPRADVDHAIEKAFMLWSNV = false (0)
• YTPDHPRADVDHAIEKAFQLWSNV = true (1)
• YTPDLPRADVDHLIEKAFQLWSNV = false (0)
• YTPYLPRADVDHAIEKAFQLWSNV = true (1)
• YTPDLPRADVDHAIEKAFQLWSLV = true (1)
• YTPDLPRSDVDHAIEKAFQLWSNV = false (0)
• YTPDLPRADVDHAIEKAFQCWSNV = false (0)
• YTPDLPRADVDHAIEKAFQLASNV = true (1)
• YTPDLPRADVDHAIEKAFQLWSTV = true (1)
• HTPDLPRADVDHAIEKAFQLWSNV = true (1)
• YTPDLMRADVDHAIEKAFQLWSNV = true (1)
• YTPDLPRADKDHAIEKAFQLWSNV = true (1)
• YTPDLPRAYVDHAIEKAFQLWSNV = true (1)
• YTPDLPGADVDHAIEKAFQLWSNV = false (0)
• YTPDLPRADVDHAIYKAFQLWSNV = true (1)
• YTEDLPRADVDHAIEKAFQLWSNV = true (1)
• YTPSLPRADVDHAIEKAFQLWSNV = true (1)
• YTPDLPRADWDHAIEKAFQLWSNV = true (1)
• YTPDLPRADVDHAIEQAFQLWSNV = false (0)
• YTPDLPRADVDHAIEKWFQLWSNV = false (0)
• YTPDLPRADVDHAIEKAFQLWHNV = false (0)
• YTPDLPRADVDHAIEKAFQLWANV = false (0)
• YTPDLPRYDVDHAIEKAFQLWSNV = false (0)
• YTPDLPRAAVDHAIEKAFQLWSNV = false (0)
• YTPDLPRADCDHAIEKAFQLWSNV = true (1)
• YTPDLPRAGVDHAIEKAFQLWSNV = true (1)
• YTPCLPRADVDHAIEKAFQLWSNV = false (0)
• YTPDLPRADVDPAIEKAFQLWSNV = true (1)
• YTPDLERADVDHAIEKAFQLWSNV = false (0)
• YTPDLPRADVDHTIEKAFQLWSNV = true (1)
• YTPDLPRADVDHAIEKAFCLWSNV = true (1)
• YTPDLPRADNDHAIEKAFQLWSNV = false (0)
• YTPDLPRADVDHAIEFAFQLWSNV = false (0)
• YTPDLVRADVDHAIEKAFQLWSNV = true (1)
• YTPDLPRADVDHAIEKAFQLYSNV = true (1)
• YTPDLIRADVDHAIEKAFQLWSNV = true (1)
